TEST_NAME: Half life in NMRI mouse at 3 mg/kg, ip
Assay type: ADME, organism-based
Design: dose 3 mg/kg, route intraperitoneal
CONDITION_DESCRIPTION: in vivo

MOL_SMILES | half-life [h]
Cc1cccc(N2CCN(CCCCCCN3CCN(c4ccccc4)CC3)CC2)n1 | 2.5

---

TEST_NAME: Displacement of [3H]mesulergine from 5HT2C receptor in CRL:(HA) BR albino guinea pig cortex by scintillation spectrometry
Design: species or system Cavia porcellus
Each entry below carries its reported Ki.
PARAMETER_MEASURED: Ki (nM)

MOL_SMILES | PARAMETER_MEASURED | RESULT_MODIFIER | DATA_VALUE
c1ccc(N2CCN(CCCCCCN3CCN(c4ccccc4)CC3)CC2)cc1 | Ki | > | 1000
Clc1cccc(N2CCN(CCCCCCN3CCN(c4cccc(Cl)c4)CC3)CC2)c1 | Ki | = | 504
Cc1cccc(N2CCN(CCCCCCN3CCN(c4ccccn4)CC3)CC2)c1 | Ki | = | 150
COc1cccc(N2CCN(CCCCCCN3CCN(c4cccc(OC)c4)CC3)CC2)c1 | Ki | = | 303
c1ccc(N2CCN(CCCCCCN3CCN(c4ccnc5ccccc45)CC3)CC2)cc1 | Ki | > | 1000
Cc1cccc(N2CCN(CCCCCCN3CCN(c4cccc(C)n4)CC3)CC2)c1 | Ki | = | 68
Cc1cccc(N2CCN(CCCCNC(=O)c3cc4ccccc4o3)CC2)c1 | Ki | = | 206
Cc1cccc(N2CCN(CCCCCCN3CCN(c4ccccc4)CC3)CC2)n1 | Ki | = | 309
c1ccc(N2CCN(CCCCCCN3CCN(c4ccccn4)CC3)CC2)nc1 | Ki | > | 1000
c1ccc(N2CCN(CCCCCCN3CCN(c4ccccn4)CC3)CC2)cc1 | Ki | > | 1000
COc1cccc(N2CCN(CCCCCCN3CCN(c4cccc(Cl)c4)CC3)CC2)c1 | Ki | = | 92
Cc1cccc(N2CCN(CCCCCCN3CCN(c4ccccc4)CC3)CC2)c1 | Ki | = | 182
Cc1cccc(N2CCN(CCCCCCN3CCN(c4cccc(C)c4)CC3)CC2)c1 | Ki | = | 120
